- assay_protocol: AUC (0 to t) in Sprague-Dawley rat at 1 mg/kg, iv by LC-MS/MS analysis
- Assay type: ADME, organism-based
- Parameters: dose 1 mg/kg
- condition_set: in vivo
readout: AUC(0-t) (µg·h/mL)
Numbers only, in µg·h/mL.

Query :: For O=C(O)CNC(=O)c1ncc(C#CCOc2ccc(Cl)cc2)cc1O [DDO-3055] , what is its reported AUC(0-t)?
Result :: 4.71

====

- assay_protocol: Half-life in Beagle dog at 0.5 mg/kg, iv by LC-MS/MS analysis
- Type: ADME, organism-based, Canis lupus familiaris
- condition_set: in vivo
readout: half-life (h)
Answers are plain numbers, in h.

Query :: For O=C(O)CNC(=O)c1ncc(C#CCOc2ccc(Cl)cc2)cc1O [DDO-3055] , what is its reported half-life?
Result :: 2.91

====

- assay_protocol: Clearance in Sprague-Dawley rat at 2 mg/kg, ig by LC-MS/MS analysis
- Assay type: ADME, organism-based
- condition_set: in vivo, po
readout: CL/F (mL/min/kg)
Give bare numbers, in mL/min/kg.

Query :: For O=C(O)CNC(=O)c1ncc(C#CCOc2ccc(Cl)cc2)cc1O [DDO-3055] , what is its reported CL/F?
Result :: 7.3

====

- assay_protocol: AUC (0 to infinity) in Beagle dog at 0.5 mg/kg, iv by LC-MS/MS analysis
- Assay type: ADME, organism-based, Canis lupus familiaris
- Set-up: time infinity, route intravenous, dose 0.5 mg/kg
- condition_set: in vivo
readout: AUC(0-inf) (ng·h/mL)
Numbers only, in ng·h/mL.

Query :: For `O=C(O)CNC(=O)c1ncc(C#CCOc2ccc(Cl)cc2)cc1O` , what is its reported AUC(0-inf)?
Result :: 636

====

- assayed_target: Cytochrome P450 2C9 (Homo sapiens)
- Sequence (P11712 whole entry): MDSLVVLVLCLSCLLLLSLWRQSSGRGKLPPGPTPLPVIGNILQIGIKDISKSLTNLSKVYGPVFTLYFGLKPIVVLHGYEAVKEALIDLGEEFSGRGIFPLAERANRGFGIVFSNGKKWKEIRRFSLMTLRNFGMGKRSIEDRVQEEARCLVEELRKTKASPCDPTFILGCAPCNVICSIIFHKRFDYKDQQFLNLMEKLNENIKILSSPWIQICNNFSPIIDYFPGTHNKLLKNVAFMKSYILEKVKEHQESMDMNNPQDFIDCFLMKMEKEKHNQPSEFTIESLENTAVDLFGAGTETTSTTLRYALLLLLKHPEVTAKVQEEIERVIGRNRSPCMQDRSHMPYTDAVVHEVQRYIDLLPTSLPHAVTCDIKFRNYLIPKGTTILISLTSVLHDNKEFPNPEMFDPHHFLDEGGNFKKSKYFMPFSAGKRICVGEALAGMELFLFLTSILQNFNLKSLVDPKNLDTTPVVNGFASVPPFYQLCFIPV
readout: IC50

Query :: For `O=C(O)CNC(=O)c1ncc(C#CCOc2ccc(Cl)cc2)cc1O` , what is its reported IC50?
Result :: > 30 µM

====

- assay_protocol: AUC (0 to infinity) in Beagle dog at 2 mg/kg, ig by LC-MS/MS analysis
- Type: ADME, organism-based, Canis lupus familiaris
- Parameters: route […], time infinity, dose 2 mg/kg
- condition_set: in vivo, po
readout: AUC(0-inf) (ng·h/mL)
One number for each entry, in ng·h/mL.

Query :: For `O=C(O)CNC(=O)c1ncc(C#CCOc2ccc(Cl)cc2)cc1O` , what is its reported AUC(0-inf)?
Result :: 1370

====

- assay_protocol: Oral bioavailability in Sprague-Dawley rat at 2 mg/kg by LC-MS/MS analysis
- Type: ADME, organism-based
- condition_set: in vivo
readout: bioavailability (%)
One number for each entry, in %.

Query :: For `O=C(O)CNC(=O)c1ncc(C#CCOc2ccc(Cl)cc2)cc1O` , what is its reported bioavailability?
Result :: 55.7

====

- assay_protocol: AUC (0 to t) in Sprague-Dawley rat at 2 mg/kg, ig by LC-MS/MS analysis
- Assay type: ADME, organism-based
- Design: dose 2 mg/kg
- condition_set: in vivo, po
readout: AUC(0-t) (ng·h/mL)
Answers are plain numbers, in ng·h/mL.

Query :: For `O=C(O)CNC(=O)c1ncc(C#CCOc2ccc(Cl)cc2)cc1O` , what is its reported AUC(0-t)?
Result :: 4800
